# TESTED SYSTEM: T1, PUF4 RNA-binding domain (Saccharomyces cerevisiae, UniProt P25339 537-888)
# T1 sequence: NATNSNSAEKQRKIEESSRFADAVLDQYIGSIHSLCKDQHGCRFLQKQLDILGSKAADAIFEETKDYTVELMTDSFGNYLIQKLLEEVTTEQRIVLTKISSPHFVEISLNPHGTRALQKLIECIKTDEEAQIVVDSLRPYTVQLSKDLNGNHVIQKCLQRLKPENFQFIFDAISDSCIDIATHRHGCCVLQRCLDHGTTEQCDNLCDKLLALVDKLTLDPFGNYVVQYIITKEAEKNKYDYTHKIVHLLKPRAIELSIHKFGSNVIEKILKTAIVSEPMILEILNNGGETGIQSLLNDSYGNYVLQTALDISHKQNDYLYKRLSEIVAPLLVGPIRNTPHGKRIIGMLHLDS
# TEST NAME: Mg; RNA-MaP; 20 mM Na-HEPES pH 7.4, 30 mM KOAc, 0.75 mM MgCl2, 0.1% Tween-20, 5% glycerol, 0.1 mg/mL BSA, 2 mM DTT; 25 C; 0.0125-409.6 nM protein
# STATED CONDITIONS: tags: N-His6-TEV cleaved; C-SNAP kept, Cy3B-labelled; label: tethered on chip by stalled RNA polymerase
pKd: −log10 of the molar value.
Class field: derived from pKd; ranges low = under 6, moderate = from 6 up to 8, high = 8 and over

Band of UCUCUUCUACACUUAUUAUAUCUCUU (ssRNA) [Id_ii_S1_P5E.4_K5.3_C5.2_H5.3_A5.1_F5.1_T5.2] ?
low

Just checking, what class would you give Id_ii_S4_P3E.4_K3.3_C3.2_[C-2T]_[T-1C]_H3.3_A3.1_F3.1_T3.2_[A10C] (ssRNA) RNA: UUUGACAACUGAUCGUUCUUUCUUCACACUAUAUCUUCUUUCUCGAUCAGUUGUCUUU here?
low

Which pKd category applies to UCUCUUUGUAAUGCAUCUCUU (ssRNA) [Ic_S1_P4E.1_K4.1_C4.1_H4.1_A4.1_[T5A]_[A6T]_[T7G]_F4.1_[T8C]_T4.1] here?
moderate

Each binder maps to one class by pKd. Which class for Id_ii_S2_P3E.4_K3.3_C3.2_H3.3_A3.1_F3.1_T3.2_[T9G]_[A10C] (ssRNA) RNA: UUUGAUUAAUAUGAUAUCGUUCUUUCUCUACACUAUAGCUUCUUUCUCGAUAUCAUAUUAAUCUUU ?
low

Sort into band: UCUCUUACUGUAUAUUAACUCUCUU (ssRNA) [Id_ii_S1_P4E.2_K4.1_C4.2_[C-2A]_[T-1C]_H4.1_A4.1_F4.1_T4.2_[G10A]_[T11C]]
high

# bin lookup: classify ACAAACCCACACUUAUUAUCACAAAC (ssRNA) [Id_ii_S3_P5E.4_K5.3_C5.2_[T-1C]_H5.3_A5.1_F5.1_T5.2_[A12C]] by its pKd
low

Assign a category based on measured pKd for UCUCUUUAUGUAUUAUUAGCUCUCUU (ssRNA) [Id_ii_S1_P5E.2_K5.1_C5.2_[C-2T]_[T-1A]_H5.1_A5.1_F5.1_T5.2_[T11G]_[A12C]] and give only the class name.
high

Which class is correct for the following binder? UCUCUUUGUAUUAUCUCUAUCUCUU (ssRNA) [Ie_S1_P5E.1_K5.1_C5.1_H5.1_A5.1_F5.1_[+8CTC]_T5.1]
moderate

Place this binder in its band: ACAAACUUACACUUAUUACGACAAAC (ssRNA) [Id_ii_S3_P5E.4_K5.3_C5.2_[C-2T]_H5.3_A5.1_F5.1_T5.2_[T11C]_[A12G]]
low
